Reference for the values: paper PMC9607427

Provide the recorded IC50 at 72 h for the entries that follow.
ASSAY_INFO: Cytotoxic MTS assay, BJ
Type: cell-based, human
MEASUREMENT_SETUP: human, BJ cells (noncancerous foreskin fibroblasts); MTS, 72 h of incubation
The response must be a number in µM with no trailing unit.

Task: Would you kindly share the measured IC50 at 72 h for Cc1cc(C)cc(C(=O)OCC[S+]([O-])c2ccnc3cc(Cl)ccc23)c1 (centres unmarked) [Compound 50] ?
Result: 30.8

Task: Consider next the molecule COc1ccc(C(=O)OCCC[S+]([O-])c2ccnc3cc(Cl)ccc23)cc1[N+](=O)[O-] (centres unmarked) [Compound 59] in the same way.
Result: 21.6

Task: Consider next the molecule O=C(OCCC[S+]([O-])c1ccnc2cc(Cl)ccc12)c1ccc(C(F)(F)F)cc1 (centres unmarked) [Compound 62] in the same way.
Result: 29.9

Task: Consider next the molecule [O-][S+](CCO)c1ccnc2cc(Cl)ccc12 (centres unmarked) [Compound 41] in the same way.
Result: 33.3

Task: Consider next the molecule Cc1ccc([N+](=O)[O-])c(C(=O)OCCC[S+]([O-])c2ccnc3cc(Cl)ccc23)c1 (centres unmarked) [Compound 60] in the same way.
Result: 29
